Test target: Rhodesain (Trypanosoma brucei rhodesiense) (UniProt Q95PM0)
Sequence (Q95PM0 1-450): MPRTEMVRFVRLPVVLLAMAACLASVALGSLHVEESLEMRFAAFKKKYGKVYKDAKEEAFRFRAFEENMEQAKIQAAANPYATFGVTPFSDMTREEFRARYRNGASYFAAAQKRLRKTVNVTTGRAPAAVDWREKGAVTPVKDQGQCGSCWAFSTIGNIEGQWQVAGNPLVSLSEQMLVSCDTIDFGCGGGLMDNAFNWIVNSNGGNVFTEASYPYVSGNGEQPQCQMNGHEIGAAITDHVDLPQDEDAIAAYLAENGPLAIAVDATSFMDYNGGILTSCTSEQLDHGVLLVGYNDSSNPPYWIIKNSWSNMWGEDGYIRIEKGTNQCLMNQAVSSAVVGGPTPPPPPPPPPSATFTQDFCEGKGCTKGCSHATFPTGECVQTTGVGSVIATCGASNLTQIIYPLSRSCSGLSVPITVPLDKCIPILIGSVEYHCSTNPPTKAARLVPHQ
Assay info: Inhibition of Trypanosoma brucei rhodesiense rhodesain after 12 hrs by fluorescence spectroscopy-based on-bead assay
Set-up: concentration or dose not given beside the values
Condition label: concentration not given here
Peptide text beside a SMILES is read from it.
Exercise: for every item that follows, state its recorded inhibition.
Numbers only, in %.

[[record]]
molecule = "CC(C)C[C@H](NC(=O)[C@@H](NC(=O)[C@H](C)NC(=O)/C=C/C(=O)NCC(=O)NCC(=O)N[C@@H](Cc1ccccc1)C(=O)O)C1CCCCC1)C(=O)N[C@H](C(N)=O)C(C)C (HELM PEPTIDE1{[O=C(/C=C/C(=O)[*:2])NCC(=O)NCC(=O)N[C@@H](Cc1ccccc1)C(=O)O].A.[O=C([C@@H](N[*:1])C1CCCCC1)[*:2]].L.V.[am]}$$$$V2.0)"
test_target = "Rhodesain (Trypanosoma brucei rhodesiense) (UniProt Q95PM0)"
numeric_readout = 60

[[record]]
molecule = "CC[C@H](C)[C@H](NC(=O)[C@H](C)NC(=O)/C=C/C(=O)N[C@@H](C)C(=O)NCC(=O)N[C@@H](Cc1ccccc1)C(=O)O)C(=O)N[C@H](C(=O)N[C@H](C(N)=O)C(C)C)C(C)C (HELM PEPTIDE1{[C[C@H](NC(=O)/C=C/C(=O)[*:2])C(=O)NCC(=O)N[C@@H](Cc1ccccc1)C(=O)O].A.I.V.V.[am]}$$$$V2.0)"
test_target = "Rhodesain (Trypanosoma brucei rhodesiense) (UniProt Q95PM0)"
numeric_readout = 34


Now for the molecule whose inhibition we want.
# inhibition of CC(C)[C@H](NC(=O)[C@@H](NC(=O)[C@@H](NC(=O)[C@H](C)NC(=O)/C=C/C(=O)N[C@@H](C)C(=O)NCC(=O)N[C@@H](Cc1ccccc1)C(=O)O)C1CCCCC1)C(C)C)C(N)=O (HELM PEPTIDE1{[C[C@H](NC(=O)/C=C/C(=O)[*:2])C(=O)NCC(=O)N[C@@H](Cc1ccccc1)C(=O)O].A.[O=C([C@@H](N[*:1])C1CCCCC1)[*:2]].V.V.[am]}$$$$V2.0) = 34

----------
Exercise: for every item that follows, state its recorded inhibition.
Test target: Rhodesain (Trypanosoma brucei rhodesiense)
Assay info: Inhibition of Trypanosoma brucei rhodesiense rhodesain after 12 hrs by fluorescence spectroscopy-based on-bead assay
Set-up: concentration or dose not given beside the values
Condition label: concentration not given here
Peptide text beside a SMILES is read from it.
Please format your answer as a value with the unit trailing.

[[record]]
compound = "CC(C)[C@H](NC(=O)[C@H](C)NC(=O)[C@@H](NC(=O)[C@H](CCC(N)=O)NC(=O)/C=C/C(=O)NCC(=O)NCC(=O)N[C@@H](Cc1ccccc1)C(=O)O)c1ccccc1)C(N)=O (HELM PEPTIDE1{[O=C(/C=C/C(=O)[*:2])NCC(=O)NCC(=O)N[C@@H](Cc1ccccc1)C(=O)O].Q.[Phg].A.V.[am]}$$$$V2.0)"
quantity = "inhibition"
result = "17%"


Now for the compound whose inhibition we want.
# inhibition of CC(C)C[C@H](NC(=O)[C@H](CCC(N)=O)NC(=O)/C=C/C(=O)N[C@@H](C)C(=O)NCC(=O)N[C@@H](Cc1ccccc1)C(=O)O)C(=O)N[C@@H](CC(C)C)C(=O)N[C@H](C(N)=O)C(C)C (HELM PEPTIDE1{[C[C@H](NC(=O)/C=C/C(=O)[*:2])C(=O)NCC(=O)N[C@@H](Cc1ccccc1)C(=O)O].Q.L.L.V.[am]}$$$$V2.0) = 56%
